System: DLD-1 colon
Assay: NCI tumour cell line growth inhibition, 48 h
measuredMetric: TGI (µM)
Report the figure in µM without appending any unit label.

Can you look up the measured TGI of COc1cc(C2c3cc4c(cc3[C@@H](Nc3ccc([N+](=O)[O-])cc3)C3COC(=O)[C@H]23)OCO4)cc(OC)c1O (stereo not given in full) for me?
19.2

Can you look up the measured TGI of C[C@]12CC(C=O)C(=O)C(O)=C1CC[C@@H]1C2CC[C@@]2(C)C1CC[C@]2(C)O (stereo not given in full) for me?
34.5

----------
Test system: NCI/ADR-RES ovarian
Test: NCI tumour cell line growth inhibition, 48 h
Give TGI for every item shown.

Can you look up the measured TGI of CC(=O)O[C@@H]1C2=C(C)C3(CC3)[C@@](C)(O)C(=O)C2=C[C@@]1(C)CO for me?
4.11 µM

Can you look up the measured TGI of CCOC(=O)c1csc(C(CSCc2ccc(OC)cc2)N2C(=O)c3ccccc3C2=O)n1 (configuration not stated) for me?
> 100 µM

Can you look up the measured TGI of Cc1nc2sc(C(=O)Nc3ccccc3)c(N)c2cc1C(O)c1ccccc1 (configuration not stated) for me?
28.8 µM

Can you look up the measured TGI of CN(/N=C/C=N/N(C)C1=NCCCN1)C1=NCCCN1 for me?
> 100 µM

Can you look up the measured TGI of Clc1cc(OCc2nn3c(Cc4ccccc4)nnc3s2)c(Cl)cc1OCc1nn2c(Cc3ccccc3)nnc2s1 for me?
> 100 µM

Can you look up the measured TGI of CC[C@@H]([C@H](O)c1ccccc1Cl)[N+](=O)[O-] for me?
> 100 µM

Can you look up the measured TGI of CSCC(CO)NC(=O)/C=C/c1c(C)[nH]c(=O)[nH]c1=O (configuration not stated) for me?
> 875 µM

Can you look up the measured TGI of CNCC(=O)NC(CO)C(=O)NC(CO)C(=O)NC1C(C(N)=O)OC(n2ccc(N)nc2=O)C(O)C1O (configuration not stated) for me?
28 µg/mL

Can you look up the measured TGI of Cc1cc(-c2nc3n(c2/C=N/N=C(N)N)CCS3)c(C)s1 for me?
> 100 µM

Can you look up the measured TGI of COc1ccc(C(OCC2OC3(COC(c4ccccc4)(c4ccc(OC)cc4)c4ccc(OC)cc4)C(Oc4nc(=O)ccn43)C2O)(c2ccccc2)c2ccc(OC)cc2)cc1 (configuration not stated) for me?
> 100 µM

Can you look up the measured TGI of CSc1nnc(-c2cc3c([nH]c4ccccc43)c(-c3cccc(O)c3)n2)n1-c1ccc(C)cc1 for me?
> 100 µM

Can you look up the measured TGI of O=C(Sc1n[nH]c(=O)[nH]c1=O)c1cccc2nc3ccccc3nc12 for me?
> 100 µM

Can you look up the measured TGI of CCOC(=O)[C@@H]1ON2O[C@@H](OC3CCCCC3c3ccccc3)C[C@H]3OC(=O)[C@@H]1C32 (some centres not stated) for me?
> 100 µM

Can you look up the measured TGI of O=C(N/N=C/c1cc(Cl)ccc1O)c1ccccc1Nc1ccnc(C(F)(F)F)c1 for me?
9.03 µM

Can you look up the measured TGI of COc1ccc(/C=C2\Sc3nnc(-c4ccccc4)n3N=C2c2cc(F)c(Cl)cc2Cl)cc1OC for me?
> 100 µM

Can you look up the measured TGI of Cc1cc(S(=O)(=O)NC2=NCCCN2)c(S)cc1Cl for me?
> 100 µM

Can you look up the measured TGI of CCCCCCCCCC(=O)NC(CCC(=O)N(CCNC(=O)c1nc(-c2ccccc2)oc1-c1ccccc1)Cc1ccccc1)C(=O)O (configuration not stated) for me?
33.3 µM
